Where these numbers come from: paper PMC9482650

Biological target: SCRIB_3, Q14160
Sequence (Q14160 999-1103): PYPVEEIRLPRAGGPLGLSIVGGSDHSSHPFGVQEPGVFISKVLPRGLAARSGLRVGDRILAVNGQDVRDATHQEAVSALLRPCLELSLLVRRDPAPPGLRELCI
Assay: holdup assay
Parameters: key: below the threshold = too weak to quantify, mostly under pKd 3.1 to 4
Conditions: plain residues with an end cap or a label only (N-terminal biotin on a linker: ado-ado)
Label Criterion met for high-side pKd (at or above 5) and Criterion not met for low-side pKd (below it).

Does the reported pKd for FNSYSLTGYV [CLDN2, P57739] fall at or above the 5 mark? Criterion not met

Hi team, for TLPRKRMSSI [GPRC6A, Q5T6X5] , is the recorded pKd at or above 5? Criterion not met

hey, is pKd for this one >= 5? MLSKQSESAI [FLVCR1, Q9Y5Y0] Criterion not met

Evaluate RRRESYSTTV [EVI5, O60447] : pKd at minimum 5? Criterion not met

Decide: pKd of RHGSCVETSL [TMEM151B, Q8IW70] >= 5? Criterion met

Please indicate if the recorded pKd for QGPVETESVV [SLC45A4, Q5BKX6] meets or exceeds 5. Criterion not met
